Biological target: Fes (UniProt P07332)
Sequence (P07332 whole entry, looked up): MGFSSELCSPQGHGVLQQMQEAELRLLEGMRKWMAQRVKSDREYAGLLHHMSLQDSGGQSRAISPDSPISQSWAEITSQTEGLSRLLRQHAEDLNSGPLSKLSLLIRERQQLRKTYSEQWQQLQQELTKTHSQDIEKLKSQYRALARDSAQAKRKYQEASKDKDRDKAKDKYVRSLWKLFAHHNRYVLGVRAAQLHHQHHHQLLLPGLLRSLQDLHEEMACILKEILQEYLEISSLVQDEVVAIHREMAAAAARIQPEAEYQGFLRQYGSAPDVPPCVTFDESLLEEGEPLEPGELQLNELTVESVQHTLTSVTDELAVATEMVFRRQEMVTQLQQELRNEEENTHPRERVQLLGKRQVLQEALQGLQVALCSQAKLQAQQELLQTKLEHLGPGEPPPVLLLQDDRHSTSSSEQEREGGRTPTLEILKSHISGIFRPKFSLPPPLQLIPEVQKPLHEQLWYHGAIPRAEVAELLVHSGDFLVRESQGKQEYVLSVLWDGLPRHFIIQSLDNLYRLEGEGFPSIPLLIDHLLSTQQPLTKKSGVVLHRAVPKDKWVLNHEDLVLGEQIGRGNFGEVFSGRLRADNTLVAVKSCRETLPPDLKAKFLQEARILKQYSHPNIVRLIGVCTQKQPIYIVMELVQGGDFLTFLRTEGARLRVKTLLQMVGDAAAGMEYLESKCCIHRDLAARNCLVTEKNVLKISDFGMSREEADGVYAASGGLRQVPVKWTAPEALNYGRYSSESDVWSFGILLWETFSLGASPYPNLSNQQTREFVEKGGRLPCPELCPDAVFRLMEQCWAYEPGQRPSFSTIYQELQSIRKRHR
Assay: phosphorylation enrichment, bacterial display (enrichment ratio); higher = better substrate or ligand; peptides without Tyr show the background;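 note: 11-residue human phosphosite peptides and single-mutation variants displayed on the E. coli surface, counted by deep sequencing, each peptide's frequency after selection divided by its frequency in the unselected input library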;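 note: frequency after pTyr selection over input frequency; kinase dosed for 20-30% of maximal phosphorylation in three min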
Label rule, in plain words: phosphorylation enrichment of 1 and up is condition met, under 1 is condition not met.

Please review the entries below; each comes with its answer.
input_sequence="GVRLFYRVRES [RB1_Y454_M457R_YF]" qualitative_label="condition met"
input_sequence="SVTCTYFPALN [TP53_Y126_S127F]" qualitative_label="condition met"
input_sequence="KEAQVYQAFRL [SUCLG2_Y343_K347R]" qualitative_label="condition not met"
input_sequence=ENAGYYFQVSA qualitative_label="condition met"
input_sequence="LKEIHYPPFTD [ALDH3B2_Y362_YF]" qualitative_label="condition not met"
input_sequence="QADIIYVNTQL [MERTK_Y872_V870I]" qualitative_label="condition met"
input_sequence="SMGHRYIEVFR [HNRNPF_Y82_K87R]" qualitative_label="condition not met"
input_sequence="PTKNDYWAMLA [WWOX_Y287]" qualitative_label="condition met"

// inclusive: phosphorylation enrichment at least 1? input: ISRASYFRKGG [ALK_Y1282_Y1278S_YF]
condition not met

// inclusive: phosphorylation enrichment at least 1? input: RGVTHYILQTF [SLC39A4_Y359]
condition met

// inclusive: phosphorylation enrichment at least 1? input: DPHECYAKVFN [ALB_Y394_D399N]
condition not met

// inclusive: phosphorylation enrichment at least 1? input: MGGSLYFSYPD [HIKESHI_Y55_V54L]
condition met

---

Tested on: Fer (mouse)
Experiment: phosphorylation enrichment, bacterial display (enrichment ratio); higher = better substrate or ligand; peptides without Tyr show the background
Would you kindly list phosphorylation enrichment for each of these sequences?
Answers are plain numbers.

Reference set, count: 4
input_sequence="GEFFRYLAEVA [YWHAG_Y133_D129E_YF]" measurement_kind="phosphorylation enrichment" numeric_readout=0.51
input_sequence="KKKKQYKGKFL [CASK_Y708_D710G_YF]" measurement_kind="phosphorylation enrichment" numeric_readout=0.439
input_sequence="KTSGNYLAVTG [WDR19_Y28]" measurement_kind="phosphorylation enrichment" numeric_readout=0.404
input_sequence="LGGAMYFLEAD [PKHD1_Y452_E457D_YF]" measurement_kind="phosphorylation enrichment" numeric_readout=0.517

Now take the following sequence into account.
What value of phosphorylation enrichment has been reported for the following sequence? SSSGAYGGGFG [KRT19_Y61_YF]
0.396

---

Biological target: FGFR1 (UniProt P11362)
Sequence (P11362 whole entry, looked up): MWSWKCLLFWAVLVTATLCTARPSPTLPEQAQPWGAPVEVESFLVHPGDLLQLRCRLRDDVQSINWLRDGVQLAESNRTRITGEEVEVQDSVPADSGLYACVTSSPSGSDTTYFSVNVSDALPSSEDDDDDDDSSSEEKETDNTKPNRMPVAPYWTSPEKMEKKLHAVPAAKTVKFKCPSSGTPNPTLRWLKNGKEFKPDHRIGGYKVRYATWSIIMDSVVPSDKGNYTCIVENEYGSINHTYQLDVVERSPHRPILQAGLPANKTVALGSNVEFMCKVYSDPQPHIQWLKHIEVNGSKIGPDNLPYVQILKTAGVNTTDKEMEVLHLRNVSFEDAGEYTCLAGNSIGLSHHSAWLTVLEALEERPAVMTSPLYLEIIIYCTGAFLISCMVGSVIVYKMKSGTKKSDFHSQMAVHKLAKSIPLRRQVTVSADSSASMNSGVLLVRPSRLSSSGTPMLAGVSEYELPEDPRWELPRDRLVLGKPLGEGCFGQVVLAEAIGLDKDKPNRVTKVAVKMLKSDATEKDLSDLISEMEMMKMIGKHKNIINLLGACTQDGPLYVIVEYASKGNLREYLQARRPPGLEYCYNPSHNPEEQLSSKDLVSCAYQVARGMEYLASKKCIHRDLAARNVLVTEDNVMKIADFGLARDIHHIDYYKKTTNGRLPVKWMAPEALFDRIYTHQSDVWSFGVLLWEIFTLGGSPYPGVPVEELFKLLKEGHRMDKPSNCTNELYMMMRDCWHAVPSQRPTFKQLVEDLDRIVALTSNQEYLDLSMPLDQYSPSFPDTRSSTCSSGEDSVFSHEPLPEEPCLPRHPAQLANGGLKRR
Test: phosphorylation enrichment, bacterial display (enrichment ratio); higher = better substrate or ligand; peptides without Tyr show the background
measurement-kind: phosphorylation enrichment
Numbers only.

input_sequence="DPNQQYFIAMD [TBX15_Y159_H156N_YF]" measurement_kind="phosphorylation enrichment" numeric_readout=0.892

The following sequences each have a reported value; give each one's phosphorylation enrichment.
1. HEVHIYENSGA [ARPC1B_Y35_K37N]
2. TEVIWYKGDEE
3. DAAEDYAEGVC [DHODH_Y194_R199C]
4. EVKEAYMGNVL [ACAT1_Y90]
5. HHIDYYKETTN [FGFR1_Y654_K656E]
6. SREDIYKRNTE [PDE4DIP_Y45_I49T]
7. EEGEEYGGGGG [TUBA1A_Y451]
8. ELPEKYSQNIC [PKP2_Y626_Y631C]

1: 0.703; 2: 0.445; 3: 0.658; 4: 0.596; 5: 1.09; 6: 0.411; 7: 0.604; 8: 0.518

The following sequences each have a reported value; give each one's phosphorylation enrichment.
1. TWEKPYECVQC [ZNF24_Y335_G331W]
2. QLAPQYTYAQG [FLNA_Y1761]
3. IRQGHYESLKE [MTR_Y921_D919G]
4. RAILLYEYVGK [NATD1_Y45_V42I]

0.516
0.714
0.419
4.68

What value of phosphorylation enrichment has been reported for the following sequence? ENKGVYVLMSG [IVD_Y277]
2.5
